B1: ZNF449 (parent)
chain: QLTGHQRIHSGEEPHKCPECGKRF

# Variants of: B1
# assay_info: protein stability index of a GFP-peptide fusion (GPS, HEK-293T) (PSI 1-6); higher = more stable;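 also: lentivirally expressed fusions sorted by FACS into six bins by GFP to DsRed ratio, PSI derived from sequencing read proportions per bin multiplied by bin number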
# stated_conditions: c terminus: a fixed tail appended
Listing of entries alongside the reported protein stability index.
Enter a number only.

Check out these entries, answers already filled in.
QLTGHQRIHSGEEPHKCPECGIRF [K22I]    3.73
QLTMHQRIHSGEEPHKCPECGKRF [G4M]    4.18
QLTGHQYIHSGEEPHKCPECGKRF [R7Y]    4.14
QLTGHQRIHSGEEKHKCPECGKRF [P14K]    3.98
QLTGHQRIHYGEEPHKCPECGKRF [S10Y]    3.45
QLTGHQRIHSGEEPHKCPECAKRF [G21A]    4.21

Request: Using the record for QLTGHCRIHSGEEPHKCPECGKRF [Q6C] , state its measured protein stability index.
Result: 4.23

Request: Using the record for QLTGHQRIHSGEYPHKCPECGKRF [E13Y] , state its measured protein stability index.
Result: 3.15
